test system: Klebsiella pneumoniae; assay: Antimicrobial activity against Klebsiella pneumoniae isolate KpBEL expressing beta-lactamase OXA-48 by Etest method; assay type: functional
I'd be grateful if you could share measured MIC for these entries.
Give bare numbers, in µg/mL.

Example cases with answers are listed next.
Prompt: Give Klebsiella pneumoniae MIC for CC(=O)OCC1=C(C(=O)O)N2C(=O)[C@@H](NC(=O)Cc3cccs3)[C@H]2SC1 [CEPHALOTHIN]
Completion: 16

Prompt: Also `CO/N=C(\C(=O)N[C@@H]1C(=O)N2C(C(=O)[O-])=C(C[N+]3(C)CCCC3)CS[C@H]12)c1csc(N)n1` , if possible.
Completion: 0.12

More entries:
Prompt: Give Klebsiella pneumoniae MIC for `C[C@@H](O)[C@H]1C(=O)N2C(C(=O)O)=C(S[C@@H]3CN[C@H](C(=O)Nc4cccc(C(=O)O)c4)C3)[C@H](C)[C@H]12`
Completion: 4
